Recorded values, source ChEMBL document CHEMBL4390695.

Hi there, I'd appreciate the recorded IC50 for every entry that follows.

Query block: Quick check: IC50 on Tyrosinase (Agaricus bisporus, UniProt O42713), item COc1ccccc1/C=N/NC(=O)c1ccc(OC)c(OC)c1 ?
Result block: 35.2 µM

Query block: Quick check: IC50 on Tyrosinase (Agaricus bisporus, UniProt O42713), item COc1ccc(/C=N/NC(=O)c2ccc(OC)c(OC)c2)cc1OC ?
Result block: > 50 µM

Query block: Quick check: IC50 on Tyrosinase (Agaricus bisporus, UniProt O42713), item COc1ccc(C(=O)N/N=C/c2ccc(Br)cc2)cc1OC ?
Result block: > 50 µM

Query block: Quick check: IC50 on Tyrosinase (Agaricus bisporus, UniProt O42713), item COc1ccc(C(=O)N/N=C/c2ccc(N(C)C)cc2)cc1OC ?
Result block: > 50 µM

Query block: Quick check: IC50 on Tyrosinase (Agaricus bisporus, UniProt O42713), item COc1ccc(C(=O)N/N=C/c2cc(OC)c(OC)c(OC)c2)cc1OC ?
Result block: 37.4 µM

Query block: Quick check: IC50 on Tyrosinase (Agaricus bisporus, UniProt O42713), item COc1ccc(C(=O)N/N=C/c2ccc(O)cc2O)cc1OC ?
Result block: 31.5 µM

Query block: Quick check: IC50 on Tyrosinase (Agaricus bisporus, UniProt O42713), item CCOc1cc(/C=N/NC(=O)c2ccc(OC)c(OC)c2)ccc1O ?
Result block: > 50 µM

Query block: Quick check: IC50 on Tyrosinase (Agaricus bisporus, UniProt O42713), item COc1ccc(C(=O)N/N=C/c2cc(OC)c(O)c(OC)c2)cc1OC ?
Result block: > 50 µM

Query block: Quick check: IC50 on Tyrosinase (Agaricus bisporus, UniProt O42713), item COc1ccc(/C=N/NC(=O)c2ccc(OC)c(OC)c2)cc1 ?
Result block: > 50 µM

Query block: Quick check: IC50 on Tyrosinase (Agaricus bisporus, UniProt O42713), item COc1ccc(C(=O)N/N=C/c2ccc(OC(C)=O)c(OC)c2)cc1OC ?
Result block: 28.3 µM
